Reference source for all entries: patent US20080032921A1

biological target: HLA-DR DRB1*0101 (human)
pIC50: −log10 of the molar value.
VALUE KIND: pIC50

Field: example entries. Status: answers known.
BINDER	pIC50
TQGALLNDKHSNGTVKD (modifications not checked) [Flu.NA.115 peptide …]	< 5.00
VSLVKSDQICIGYHA (modifications not checked) [Flu.HA.11]	< 5.00

Could you now look at the following binder, please?
Entry CEQIADSQHRSHRQM (modifications not checked) [Flu.M1.154] : reported pIC50 = ?
< 5.00
